Tested on: DLBCL cell lines
test.method.notes: DLBCL cell lines growth inhibition (Cell Titer Glo Luminescent Assay), panel of 6 cell lines
Format: cell-based
condition.summary: median over 6 DLBCL cell lines
Experimental: 6 DLBCL cell lines were treated by increasing doses of PARP inhibitor (PJ34 hydrochloride). DLBCL cell lines growth was quantified with a Cell Titer Glo Luminescent Assay (Promega, Madison, Wis., USA) and the 50% inhibitory concentration (IC50) was determined using GraphPad Prism software (http://www.graphpad.com/scientific-software/prism/) (FIG. 7A).
pIC50: −log10 of the molar value.
quantity.measured: pIC50

INSERT INTO measurements (compound, subject_of_test, quantity_measured, value_observed) VALUES
  ('CN(C)CC(=O)Nc1ccc2[nH]c(=O)c3ccccc3c2c1.Cl [PJ34, PJ34 hydrochloride]', 'DLBCL cell lines', 'pIC50', 5.11);
